Assay: inhibitors of Chlamydomonas gravitaxis, primary screen, whole organism, Chlamydomonas reinhardtii, WT vs cilia-less mutant, absorbance, 96-well (AID 463189);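 note: 0% = wild type cc124 cells in DMSO and 100% = ciliumless bld1 mutant cells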
Details: OD600 absorbance, 2 days, at 10 µM, stronger effect = higher value
Please respond with reported inhibition for every item in the list.
Field: numeric (%). Do not append units.

Prompt: Consider the molecule Cc1ccc2cc(CN(C(=O)c3ccco3)c3ccccc3)c(=O)[nH]c2c1 . State its measured inhibition.
Completion: 33.7

Prompt: Note down inhibition recorded for COc1cc(C(=O)Nc2nccs2)cc(OC)c1OC
Completion: -0.002

Prompt: Let me know recorded inhibition for Cc1ccc2cc(CN(C(=O)c3ccco3)c3ccccc3C)c(=O)[nH]c2c1 , thanks.
Completion: 32.2

Prompt: Give inhibition for the following molecule: CC1(C)SC2[C@H](NC(=O)C(NC(=O)N3CCNC3=O)c3ccccc3)C(=O)N2C1C(=O)O (stereo not given in full)
Completion: 6.16

Prompt: For the molecule O=C1CCc2nc3ccccc3c(=O)n2N1 , report inhibition.
Completion: 23.6

Prompt: Fill in reported inhibition for this entry: CC(=O)c1c(OCC(=O)O)ccc2c(C)cc(=O)oc12
Completion: 19.8

Prompt: Complete the entry with inhibition for c1ccc(Cc2nn[nH]n2)cc1
Completion: -10.1

Prompt: Give the value of inhibition reported for the following: COc1ccc(C(=O)Cn2c(Br)nc3c2c(=O)n(C)c(=O)n3C)cc1OC
Completion: -16.3

Prompt: Quote inhibition reported for CCOC(=O)c1ccc(NC(=O)CCC(CC)C(=O)O)cc1 (stereo not given) please.
Completion: -1.41

Prompt: Could you please provide reported inhibition for COc1ccc(N/C(=N\c2nc(C)cc(C)n2)NC(=O)C(C)C)cc1OC ? Thanks!
Completion: 1.34

Prompt: For the molecule O=C(Nn1cnnc1)C(c1ccccc1)c1ccccc1 , report inhibition.
Completion: 17.9

Prompt: Specify inhibition for Cc1ccccc1NC(=O)NCCc1nc2ccccc2[nH]1 and stop.
Completion: -6.75

Prompt: Write down inhibition measured for item Cc1ccc(N(Cc2cc3ccccc3[nH]c2=O)C(=O)c2ccco2)c(C)c1
Completion: 12

Prompt: Answer with the recorded inhibition for the molecule listed here: CN(C)CC(O)COc1cccc(OCC(O)CN(C)C)c1 (stereo not given)
Completion: -5.71

Prompt: Supply inhibition value. Item: CC(=O)OCC(=O)[C@@]1(OC(C)=O)[C@@H](C)C[C@H]2[C@@H]3C[C@H](F)C4=CC(=O)C=C[C@]4(C)[C@@]3(F)[C@@H](O)C[C@@]21C
Completion: 3.31

Prompt: Given CCOC(=O)C1CCN(C(C)=C2C(=O)c3ccccc3C2=O)CC1 , respond with its inhibition.
Completion: 25.7

Prompt: Input N#CCSc1nc2c(cc1C#N)CCCCCC2 , output reported inhibition.
Completion: 19.7

Prompt: State its inhibition: CCOC(=O)CC(C#N)c1cn(C)c2ccccc12 (stereo not given)
Completion: 13.1

Prompt: Return value of inhibition for input COc1cccc(Cn2c(NCC(C)C)nc3c2c(=O)n(C)c(=O)n3C)c1 , no commentary.
Completion: -12.8

Prompt: Using the record for O=C(CCCN1CC=C(n2c(=O)[nH]c3ccccc32)CC1)c1ccc(F)cc1 , state its measured inhibition.
Completion: 5.84

Prompt: Give the reported value of inhibition for this record: CCc1cc2c(=O)c(-c3nc4ccccc4[nH]3)coc2cc1OC(=O)N1CCOCC1
Completion: -11.5

Prompt: // Input: CCOC(=O)c1c(C)n(C)c2ccc(OC)c(NC(=O)CCN3CCSCC3)c12 . Output its inhibition only.
Completion: 4.14

Prompt: Report inhibition for COc1cc([C@@H]2[C@H]3CN(C)CC=C3C(C#N)=C(N)C2(C#N)C#N)cc2c1OCO2
Completion: 38

Prompt: Supply recorded inhibition for COc1ccc(C2CC(=O)c3sc(N)nc3C2)cc1 (stereo not given) here.
Completion: 0.76

Prompt: Return value of inhibition for input COc1cccc(/C(O)=C2\C(=O)C(=O)N(c3ccccn3)C2c2ccccc2OC)c1 (stereo not given) , no commentary.
Completion: -14.1

Prompt: Specify measured inhibition for COc1ccc(-n2ccc(=O)c3c2CCCC3=O)cc1 .
Completion: -7.89

Prompt: Specify reported inhibition for the molecule shown: COc1ccc(OC)c(NC(=O)CSc2nnc(-c3ccco3)n2-c2ccc(C(=O)O)cc2)c1
Completion: 2.3

Prompt: Please list inhibition recorded for the molecule Cc1[nH]c(=O)[nH]c(=O)c1S(=O)(=O)N1CCCC1
Completion: -0.601

Prompt: Name the recorded inhibition of the molecule listed here: COc1ccc(C(=O)c2sc(NC(C)C)nc2N)cc1OC
Completion: -3.2

Prompt: Please report the measured inhibition for Cc1nn(C)cc1CNC(=O)c1ccc(Br)o1
Completion: 0.36

Prompt: State its inhibition for this molecule: COCCNc1oc(-c2ccc(C)cc2)nc1C#N
Completion: 4.66

Prompt: State its inhibition: O=C(NCCOCCOCCNC(=O)c1cccnc1)c1cccnc1
Completion: -5.31

Prompt: Name the recorded inhibition of the molecule listed here: CC(C)C1Cc2c(C#N)c(N)n(C)c(=S)c2CO1 (stereo not given)
Completion: -8.05

Prompt: For the molecule Cc1cc(NC(=O)C2=C(O)c3ccccc3S(=O)(=O)N2C)no1 , give its measured inhibition value.
Completion: -6.68

Prompt: // Input: CCCC(=O)N1CCN(c2nc(CC(C)C)c3c(c2C#N)CCC3)CC1 . Output its inhibition only.
Completion: -3.24

Prompt: // Input: O=C(CCN1CCCCC1)Nc1cccc(Cl)c1 . Output its inhibition only.
Completion: -5.09

Prompt: Check the records and state inhibition for Cc1c([C@H]2[C@@H](CC#N)C2(C)C)c2ccccc2n1C
Completion: 11.5

Prompt: For the molecule Cc1ccc(SCc2nnc(N)s2)cc1 , give its reported inhibition.
Completion: 7.17

Prompt: Return reported inhibition. Input molecule: CN1C(=O)c2c(sc3c2CCCC3)NC1c1ccccc1O (stereo not given)
Completion: 15.4

Prompt: Return reported inhibition. Input molecule: c1ccc(N2CCN(c3nc(-c4ccccn4)nc4ccccc34)CC2)cc1
Completion: 106
